Ref: the supplement of paper PMC11316812

Assign percentage of EdU-negative to each entry below.
tested on: hTERT-HMEC; assay: percentage of EdU-negative (G0-arrested) nuclei per well, 72 h; higher = more G0 arrest; details: protein concentration 0.0225 µM; reference: sequence is the full UniProt precursor, the tested protein was the secreted form or ectodomain;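 note: secreted proteins added to cultured cells, EdU pulse at the end, nuclei found by Hoechst imaging, EdU status from nuclear versus surrounding ring intensity ratio, PBS as neutral control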
Answers are plain numbers, in %.

Solved cases below.
MSLMVVSMVCVGFFLLQGAWPHEGVHRKPSLLAHPGPLVKSEETVILQCWSDVRFQHFLLHREGKFKDTLHLIGEHHDGVSKANFSIGPMMQDLAGTYRCYGSVTHSPYQLSAPSDPLDIVITGLYEKPSLSAQPGPTVLAGESVTLSCSSRSSYDMYHLSREGEAHERRFSAGPKVNGTFQADFPLGPATHGGTYRCFGSFRDSPYEWSNSSDPLLVSVTGNPSNSWPSPTEPSSETGNPRHLHVLIGTSVVIILFILLLFFLLHRWCCNKKNAVVMDQEPAGNRTVNREDSDEQDPQEVTYAQLNHCVFTQRKITRPSQRPKTPPTDIIVYTELPNAEP    5.55
MMWPMHTPLLLLTALMVAVAGSASAQSRTLAGGIHATDLNDKSVQCALDFAISEYNKVINKDEYYSRPLQVMAAYQQIVGGVNYYFNVKFGRTTCTKSQPNLDNCPFNDQPKLKEEEFCSFQINEVPWEDKISILNYKCRKV    4.35
MAVFKTTLWRLISGTLGIICLSLMSTLGILLKNSFTKLSIEPAFTPGPNIELQKDSDCCSCQEKWVGYRCNCYFISSEQKTWNESRHLCASQKSSLLQLQNTDELDFMSSSQQFYWIGLSYSEEHTAWLWENGSALSQYLFPSFETFNTKNCIAYNPNGNALDESCEDKNRYICKQQLI    4.98

Below is a list of sequences. For each, state its recorded percentage of EdU-negative.
1. MERASLIQKAKLAEQAERYEDMAAFMKGAVEKGEELSCEERNLLSVAYKNVVGGQRAAWRVLSSIEQKSNEEGSEEKGPEVREYREKVETELQGVCDTVLGLLDSHLIKEAGDAESRVFYLKMKGDYYRYLAEVATGDDKKRIIDSARSAYQEAMDISKKEMPPTNPIRLGLALNFSVFHYEIANSPEEAISLAKTTFDEAMADLHTLSEDSYKDSTLIMQLLRDNLTLWTADNAGEEGGEAPQEPQS
2. MGRRDAQLLAALLVLGLCALAGSEKPSPCQCSRLSPHNRTNCGFPGITSDQCFDNGCCFDSSVTGVPWCFHPLPKQESDQCVMEVSDRRNCGYPGISPEECASRKCCFSNFIFEVPWCFFPKSVEDCHY

Response:
[4.93, 5.31]

Working through the 4 sequences below one at a time, give percentage of EdU-negative for each.
1. MRPLAGGLLKVVFVVFASLCAWYSGYLLAELIPDAPLSSAAYSIRSIGERPVLKAPVPKRQKCDHWTPCPSDTYAYRLLSGGGRSKYAKICFEDNLLMGEQLGNVARGINIAIVNYVTGNVTATRCFDMYEGDNSGPMTKFIQSAAPKSLLFMVTYDDGSTRLNNDAKNAIEALGSKEIRNMKFRSSWVFIAAKGLELPSEIQREKINHSDAKNNRYSGWPAEIQIEGCIPKERS
2. MTTQLRVVHLLPLLLACFVQTSPKQEKMKMDCHKDEKGTIYDYEAIALNKNEYVSFKQYVGKHILFVNVATYCGLTAQYPELNALQEELKPYGLVVLGFPCNQFGKQEPGDNKEILPGLKYVRPGGGFVPSFQLFEKGDVNGEKEQKVFSFLKHSCPHPSEILGTFKSISWDPVKVHDIRWNFEKFLVGPDGIPVMRWSHRATVSSVKTDILAYLKQFKTK
3. MWTLGRRAVAGLLASPSPAQAQTLTRVPRPAELAPLCGRRGLRTDIDATCTPRRASSNQRGLNQIWNVKKQSVYLMNLRKSGTLGHPGSLDETTYERLAEETLDSLAEFFEDLADKPYTFEDYDVSFGSGVLTVKLGGDLGTYVINKQTPNKQIWLSSPSSGPKRYDWTGKNWVYSHDGVSLHELLAAELTKALKTKLDLSSLAYSGKDA
4. MGPISAPSCRWRIPWQGLLLTASLFTFWNPPTTAQLTIEAVPSNAAEGKEVLLLVHNLPQDPRGYNWYKGETVDANRRIIGYVISNQQITPGPAYSNRETIYPNASLLMRNVTRNDTGSYTLQVIKLNLMSEEVTGQFSVHPETPKPSISSNNSNPVEDKDAVAFTCEPETQNTTYLWWVNGQSLPVSPRLQLSNGNRTLTLLSVTRNDVGPYECEIQNPASANFSDPVTLNVLYGPDAPTISPSDTYYHAGVNLNLSCHAASNPPSQYSWSVNGTFQQYTQKLFIPNITTKNSGSYACHTTNSATGRNRTTVRMITVSDALVQGSSPGLSARATVSIMIGVLARVALI

Response:
4.35
5.29
4.76
5.19

Give percentage of EdU-negative for each listed item.
1. MSPHLTALLGLVLCLAQTIHTQEGALPRPSISAEPGTVISPGSHVTFMCRGPVGVQTFRLEREDRAKYKDSYNVFRLGPSESEARFHIDSVSEGNAGLYRCLYYKPPGWSEHSDFLELLVKESSGGPDSPDTEPGSSAGTVPGTEASGFDAP [Q6ISS4]
2. MFHQIWAALLYFYGIILNSIYQCPEHSQLTTLGVDGKEFPEVHLGQWYFIAGAAPTKEELATFDPVDNIVFNMAAGSAPMQLHLRATIRMKDGLCVPRKWIYHLTEGSTDLRTEGRPDMKTELFSSSCPGGIMLNETGQGYQRFLLYNRSPHPPEKCVEEFKSLTSCLDSKAFLLTPRNQEACELSNN
3. MRLGSPGLLFLLFSSLRADTQEKEVRAMVGSDVELSCACPEGSRFDLNDVYVYWQTSESKTVVTYHIPQNSSLENVDSRYRNRALMSPAGMLRGDFSLRLFNVTPQDEQKFHCLVLSQSLGFQEVLSVEVTLHVAANFSVPVVSAPHSPSQDELTFTCTSINGYPRPNVYWINKTDNSLLDQALQNDTVFLNMRGLYDVVSVLRIARTPSVNIGCCIENVLLQQNLTVGSQTGNDIGERDKITENPVSTGEKNAATWSILAVLCLLVVVAVAIGWVCRDRCLQHSYAGAWAVSPETELTGHV

Response:
1: 4.81; 2: 4.08; 3: 5.11
